measured target: hDHFR (Homo sapiens)
Construct: purchased Sigma CS0340
Sequence (P00374 whole entry): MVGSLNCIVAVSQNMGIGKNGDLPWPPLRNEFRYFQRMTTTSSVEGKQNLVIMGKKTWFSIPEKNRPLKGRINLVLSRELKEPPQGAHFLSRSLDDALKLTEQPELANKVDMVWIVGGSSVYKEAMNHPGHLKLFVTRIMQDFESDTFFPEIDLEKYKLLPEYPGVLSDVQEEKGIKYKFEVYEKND
assay summary: In vitro DHFR inhibition assay (DHFR assay kit, absorbance at 340 nm)
Format: biochemical
condition info: six concentrations 10^−4 to 10^−9 M, assay buffer pH 7.5; read-out: IC50 against hDHFR
Residues, ends and D or L forms follow the SMILES beside them.
Entries and their IC50 values follow.
Express the result in µM but write the number alone.

Value of IC50 reported for the compound CSCC[C@H](N)C(=O)N[C@@H](Cc1ccc(O)cc1)C(=O)N[C@@H](CO)C(=O)N[C@@H](CC(C)C)C(=O)O [Peptide 6, Met-Tyr-Ser-Leu] (H-MYSL-OH; N-terminus assumed) is 8

Value of IC50 reported for the compound CSCC[C@H](NC(=O)[C@H](Cc1ccc(O)cc1)NC(=O)[C@@H](N)Cc1ccccc1)C(=O)NCC(=O)O [Peptide 3, Phe-Tyr-Met-Gly] (H-FYMG-OH; N-terminus assumed) is 5.6

Value of IC50 reported for the compound CSCC[C@H](NC(=O)[C@@H](N)Cc1ccccc1)C(=O)N[C@@H](Cc1ccc(O)cc1)C(=O)N[C@@H](CC(C)C)C(=O)O [Peptide 2, Phe-Met-Tyr-Leu] (H-FMYL-OH) is 0.13
